Test system: HFL1
Experiment: Cytotoxicity against human HFL1 cells after 94 hrs by MTT assay
Format: cell-based
Details: hfl1, 94 h
MEASURE: Activity

Challenge: What value of Activity has been recorded for this entry: "CCCCC/C=C\C/C=C\C/C=C\C/C=C\CCCC(=O)Oc1ccc(C(C)C)cc1C(C)C"
Response given: Toxic

Challenge: What value of Activity has been recorded for this entry: "COc1cccc2c1C(=O)c1c(O)c3c(c(O)c1C2=O)C[C@@](O)(C(=O)CO)C[C@@H]3O[C@H]1C[C@H](N)[C@H](O)[C@H](C)O1"
Response given: Non-toxic

Challenge: What value of Activity has been recorded for this entry: "CCCCC/C=C\C/C=C\CCCCCCCC(=O)Oc1c(C(C)C)cccc1C(C)C"
Response given: Non-toxic

Challenge: What value of Activity has been recorded for this entry: "CCCCC/C=C\C/C=C\CCCCCCCC(=O)Oc1ccc(C(C)C)cc1C(C)C"
Response given: Non-toxic
